# assay_explanation: Bone marrow and plasma exposure after repeated oral dosing (LC-MS/MS)
# Format: in vivo
# recorded_conditions: Crl:NMRI, plasma, mouse, 11-day dosing, 0.5 mg/kg, 5 h after final dose on Day 12, read-out: exposure in plasma, mean (SEM)
property: concentration at 5 h

>>> result("Cn1c(=O)oc2ccc(-c3ccc(C[C@@H](C#N)NC(=O)[C@@H]4CNCCCO4)cc3)cc21 [INS1007]")
"40 nM"

---

# assay_explanation: Bone marrow and plasma exposure after repeated oral dosing (LC-MS/MS)
# Format: in vivo
# recorded_conditions: Crl:NMRI, bone marrow, mouse, 11-day dosing, 5 mg/kg, 5 h after final dose on Day 12, read-out: exposure in bone marrow, mean (SEM)
property: concentration at 5 h (nM)

>>> numeric_result("Cn1c(=O)oc2ccc(-c3ccc(C[C@@H](C#N)NC(=O)[C@@H]4CNCCCO4)cc3)cc21")
1690
